// values below are reported pKd
Target: T1, Unr CSD789 wild type (Drosophila, UniProt B7Z0E2 756-990)
T1 sequence: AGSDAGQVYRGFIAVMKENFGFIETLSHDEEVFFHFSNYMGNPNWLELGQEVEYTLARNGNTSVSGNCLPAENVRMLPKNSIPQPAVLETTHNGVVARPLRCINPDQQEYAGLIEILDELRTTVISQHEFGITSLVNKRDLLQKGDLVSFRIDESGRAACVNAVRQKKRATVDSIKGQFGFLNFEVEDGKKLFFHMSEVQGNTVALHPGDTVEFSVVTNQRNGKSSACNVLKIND
Assay: ITC
pKd: −log10 of the molar value.
measurementKind: pKd

>>> reportedvalue("AAAAAAA (ssRNA) [A7-mer]")
4.75
>>> reportedvalue("AAAAAAAA (ssRNA) [A8-mer]")
5.36
>>> reportedvalue("AAAAAAAAAAAAAAA (ssRNA) [A15-mer]")
5.32
>>> reportedvalue("AAAAAAAAA (ssRNA) [A9-mer]")
5.37
